- assay.target: RAC-alpha serine/threonine-protein kinase [139-480,S378A,S381A,T450D,S473D] (Homo sapiens, UniProt P31749, S378A/S381A/S473D/T450D)
- Construct: 139-480
- Sequence (P31749 139-480 S378A/S381A/T450D/S473D): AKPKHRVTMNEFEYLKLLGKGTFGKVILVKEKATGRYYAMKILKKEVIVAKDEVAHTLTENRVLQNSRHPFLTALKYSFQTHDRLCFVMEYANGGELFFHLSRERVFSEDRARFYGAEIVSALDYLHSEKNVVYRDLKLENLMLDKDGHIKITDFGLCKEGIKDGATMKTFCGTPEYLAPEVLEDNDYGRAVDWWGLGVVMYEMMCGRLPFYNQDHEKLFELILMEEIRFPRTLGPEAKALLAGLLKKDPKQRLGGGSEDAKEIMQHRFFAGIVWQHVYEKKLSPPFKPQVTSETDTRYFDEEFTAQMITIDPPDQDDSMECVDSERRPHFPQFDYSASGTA
- procedure.summary: Akt Kinase Assay
assay.endpoint: IC50 (nM)

>>> observed_result("Cc1n[nH]c2ccc(-c3cncc(OC[C@@H](N)Cc4cccc(OCC5CCNCC5)c4)c3)cc12")
6.8

1: Cc1n[nH]c2ccc(-c3cncc(OC[C@@H](N)Cc4ccccc4OC(F)(F)F)c3)cc12
2: COc1ccc(F)cc1C[C@H](N)COc1cncc(-c2ccc3[nH]nc(C)c3c2)c1
QUERY: Which record would sort first by descending IC50, 1 or 2 ? In your reply, give the label of the chosen option.
RESULT: 1
